# System: HCT-116
# assay_comment: Cytotoxic activity in vitro, SRB
# Assay type: cell-based, human
Could you please report measured EC50 for the items listed next?

Data request: I would be grateful if you could share the reported EC50 for Cc1ccc([N+](=O)[O-])c2c(NCCCNCCCNc3ccc([N+](=O)[O-])c4[nH]c5ccc(O)cc5c(=O)c34)c3ccccc3nc12 [C-2021] .
Data returned: 88 nM

Data request: I would be grateful if you could share the reported EC50 for Cc1ccc(NCCCN2CCN(CCCNc3c4ccccc4nc4cccc([N+](=O)[O-])c34)CC2)c2c(=O)c3ccccc3[nH]c12 [C-1973] .
Data returned: 19 nM

Data request: I would be grateful if you could share the reported EC50 for Cc1ccc([N+](=O)[O-])c2c(NCCCN3CCN(CCCNc4ccc5ncn6c7ccc(O)cc7c(=O)c4c56)CC3)c3ccccc3nc12 [C-2025] .
Data returned: 51 nM

Data request: I would be grateful if you could share the reported EC50 for O=c1c2ccccc2[nH]c2c([N+](=O)[O-])ccc(NCCNCCNCCNc3c4ccccc4nc4cccc([N+](=O)[O-])c34)c12 [C-2033] .
Data returned: 19 nM

Data request: I would be grateful if you could share the reported EC50 for CN(CCCNc1c2ccccc2nc2cccc([N+](=O)[O-])c12)CCCNc1ccc([N+](=O)[O-])c2[nH]c3ccccc3c(=O)c12 [C-2026] .
Data returned: 260 nM

Data request: I would be grateful if you could share the reported EC50 for Cc1ccc([N+](=O)[O-])c2c(NCCCN3CCN(CCCNc4ccc([N+](=O)[O-])c5[nH]c6ccccc6c(=O)c45)CC3)c3ccccc3nc12 [C-2030] .
Data returned: 83 nM

Data request: I would be grateful if you could share the reported EC50 for O=c1c2ccccc2n2cnc3ccc(NCCNCCNCCNc4c5ccccc5nc5cccc([N+](=O)[O-])c45)c1c32 [C-2037] .
Data returned: 102 nM
